MEASUREMENT DESCRIPTION: Therapeutic index, ratio of LD50 for toxicity to ED50 for antiarrhythmic activity in ip dosed Swiss-Webster albino mouse
Type: organism-based, Heart
STATED CONDITIONS: in vivo, read-out: Ratio LD50/ED50
READOUT TYPE: selectivity ratio
Give bare numbers.

Recorded selectivity ratio, per entry:
COc1cc(C(=O)O[C@@H]2CCC[C@@H]3CCN(C)C[C@H]32)cc(OC)c1OC (mixture of isomers): 4.5
COc1cc(C(=O)O[C@@H]2CCC[C@@H]3CCN(C)C[C@@H]32)cc(OC)c1OC (mixture of isomers): 2.6
COc1ccc(C(=O)N[C@@H]2CCC[C@@H]3CCN(C)C[C@H]32)cc1OC (mixture of isomers): 9.8
CN1CC[C@H]2CCC[C@@H](NS(=O)(=O)c3ccccc3)[C@@H]2C1 (mixture of isomers): 3.3
CN1CC[C@H]2CCC[C@@H](NC(=O)c3ccc(Cl)c(Cl)c3)[C@H]2C1 (mixture of isomers): 9.7
CN1CC[C@H]2CCC[C@@H](OC(=O)c3ccc(Cl)cc3)[C@@H]2C1 (mixture of isomers): 5.2

With those in mind, consider the next molecule.
Qu. Which selectivity ratio is listed for CN1CC[C@H]2CCC[C@@H](OC(=O)c3ccccc3)[C@H]2C1 (relative stereo) ?
Ans. 3.7
